Provide the reported apparent KD of MS2 coat protein of each item.
Test system: MS2 coat protein
Test: apparent KD of MS2 coat protein; designed switch direction (-1 OFF switch, 1 ON switch): -1; higher = weaker reporter binding
Conditions: Eterna round: R95; input ligand: FMN 200 uM
A number alone suffices; assume nM.

For AAGUACCGUCACGAAAGUGAUGGUACAGCAAGUAAAUGUACAUGAGGAUCACCCAUGUCCUCAAUUGCUCGUCUUAU [Sensor 3 - 59] (puzzle: Sensor v3, turn-off variant 2) , what is its reported apparent KD of MS2 coat protein?
185

Quick one: AGUAGAUCUACGCUUGCGUGGAUCUGCUAUGCAGGUGUUACAUGAGGAUCACCCAUGUCCUCAUUUGUUCGUCUUAU [JL turnoff v2 99.15] (puzzle: Sensor v3, turn-off variant 2)
135

Quick one: ACAAGCUUUUUGCUCGGGUACAUGAGGAUCACCCAUGUUUGGGUUUAUUGAGGUUGUGUUGUCGUGCGCUGCAGGUU [JR_SV3TOV1_Sub076] (puzzle: Sensor v3, turn-off variant 1)
165

###

Tested on: MS2 coat protein
Assay: apparent KD of MS2 coat protein; designed switch direction (-1 OFF switch, 1 ON switch): -1; higher = weaker reporter binding
Settings: input ligand: none
Provide the reported apparent KD of MS2 coat protein of each item.
A number alone suffices; assume nM.

For GUCCUACAUGAGGAUCACCCAUGUGAGGAUAUGGUUUCGCUGGCCGUAGCCAGUGGAACCAGAAGGCGCAUGAU [Mat - Exclusion 1 - JL Mod - D1] (Eterna round: R97, puzzle: Exclusion 1) , what is its reported apparent KD of MS2 coat protein?
25.9

Quick one: AGCUGACAAGGAUAUACAUGAGGAUCACCCAUGUUGGUCAAGCGACGAUAGUCGCAAUGUAGAAGGUGUCAGCU [E3/8-C1] (Eterna round: R97, puzzle: Exclusion 3)
341

Quick one: ACAUGAGGAUCACCCAUGUCAGGCGGGUCCACUCCGGCUGUUGAGGAUAUAGCCCGGUAUCCGCGCUAGAAGGUGAGGGCCGGC [Aenatbe mod 25] (Eterna round: R96, puzzle: Exclusion NG 3)
24.1

Quick one: GCAGCUAAUGCAGGAUAUCAGCACGAUUAGUGCUGAGAAGGGCACAUGAGGAUCACCCAUGUGAUCAAUUAAUAUUAAUGCUGC [ENG1/11-B1] (Eterna round: R96, puzzle: Exclusion NG 1)
25.1

Quick one: UUAAUUCUGAUUCUUGAAAUACAUGAGGAUCACCCAUGUUCACAGGAUAUUGAUUAUGUUAGUUACAAGAAGGGUGUAUCAUAU [JR_ExcNG3_Sub038] (Eterna round: R96, puzzle: Exclusion NG 3)
30.6

Quick one: AUACACUAACGAGGAUAUUGGAAAGGAAGUGUACAAGAAGGCGUCCGUGGAAGGGUGAAACAUGAGGAUCACCCAUGUGAAUAA [Exclusion NG 1] (Eterna round: R96, puzzle: Exclusion NG 1)
648

Quick one: AAAGAAAAGAAAGGAUAUAGCGCAGAACCGCAGCUAGAAGGUUCGGUGGGUAUCCUGUAACAUGAGGAUCACCCAUGUAAAGAG [Tire] (Eterna round: R96, puzzle: Exclusion NG 1)
55.7

Quick one: GGCAUGUAAGGAUAUGCCACGGAGGCCUUUGGCCUCCGAAAGCAGAAGGUACAUGAGGAUCACCCAUGUGAUAA [jl-ex4-4.59 ViennaUCT mod] (Eterna round: R97, puzzle: Exclusion 4)
390

Quick one: CGGAAGAUCGAAGGAUAUUGAGACAAACAGUGUCAAGAAGGUUGGGAGGACACAUGAGGAUCACCCAUGUCCAACUUUUGACGG [Eternabot solution 26] (Eterna round: R96, puzzle: Exclusion NG 1)
12.4

###

System: MS2 coat protein
Experiment: apparent KD of MS2 coat protein; designed switch direction (-1 OFF switch, 1 ON switch): -1; higher = weaker reporter binding
Conditions: input ligand: FMN 200 uM
Provide the reported apparent KD of MS2 coat protein of each item.
A number alone suffices; assume nM.

Find the measured apparent KD of MS2 coat protein: item UUUAAUUGUCAGAUGGGUGACAUGAGGAUCACCCAUGUCACAAGCUUUUUGCUCGUCUUAUAAUUAACCCAUCUGAC [Stov1/11-A1] (Eterna round: R97, puzzle: Sensor, turn-off variant 1) , target or system MS2 coat protein.
13.5

Quick one: AGCGCCAUCGUGAGAUGGCGUAUUACAUGAGGAUCACCCAUGUAGGAUAUCGAUUGCUUUGCAGUCGAGAAGGACAUGUUCUUU [JL ENG3 3.80 Mod D] (Eterna round: R96, puzzle: Exclusion NG 3)
27.1

Quick one: ACGUCCUUGGUAAGGAUAUCGAUGGAGGCGAUCCACGAGAAGGUACAUGAGGAUCACCCAUGUAUACGAAUACG [Eternabot (L1) Solution 94] (Eterna round: R97, puzzle: Brourd's mod of Exclusion 4)
18.4

Quick one: GGAUAUAAUGUGAGGAUAUCUGCGAUACCUAGUCGAGAGAAGGCACAUGAGGAUCACCCAUGUGAGGACCUCGU [Eternabot (L1) Solution 98] (Eterna round: R97, puzzle: Brourd's mod of Exclusion 4)
29.6

Quick one: UUUAAUUUAAUUAAGAUCACAUGAGGAUCACCCAUGUAAUUAUAGGAUAUCAGCUCGUGUAGAGCUGAGAAGGAUAAUUACAUA [ExNG3/5-A3] (Eterna round: R96, puzzle: Exclusion NG 3)
81.9

Quick one: AUGGAGGCAGGAUAUGAGCGUACGAACAUGAGGAUCACCCAUGUGAGAUCUCCUGGUAGCUCAGAAGGGCUAUCUC [Eternabot (Original) Solution 5] (Eterna round: R97, puzzle: Exclusion 5)
253

Quick one: UAGAUACAUGAGGAUCACCCAUGUGAGGAUAUGAGAAUUAUAUUAAAUGAAUGAAUUUUCAGAAGGCACAAAGG [JR_Ex1_Sub051] (Eterna round: R97, puzzle: Exclusion 1)
482

Quick one: GCUUCGGCAGGAUAUACAAGCUUCGGCUGAAAAGUUGAAGUACAUGAGGAUCACCCAUGUAGAAGGGUUGAAGU [-25.7, -24.2 kcal, A 32% 3 bis, 3 bis] (Eterna round: R97, puzzle: Exclusion 2)
45.6

Quick one: AAUGUCCAACGAGGAUAUGGGAAAGGAAGUGUACCAGAAGGCGUACGGACAUGAGGAUCACCCAUGUCGCGCGGCGCGAUGUGG [PowerStrip EXNG 1.14] (Eterna round: R96, puzzle: Exclusion NG 1)
80.9

###

Test system: K4 kissing-loop RNA reporter;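 further: bound reporter read as fluorescence of individual clusters on recovered sequencing chips by microscopy, with normalized cluster intensities fitted with a binding model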
Assay: apparent KD of K4 kissing-loop reporter; higher = weaker reporter binding
Details: Eterna round: R107; input ligand: none
Provide the reported apparent KD of K4 kissing-loop reporter of each item.
A number alone suffices; assume nM.

For CAAGCUCUCCAAGGAUAUGAUAUCGACCCGUCUUAGUGAUGUUAAGGCUGUAGAAAUUCACAUUGAUCAGAAGGUGGUACCCUCC [theeternabot_sameState_KL_FMN_B_8] , what is its reported apparent KD of K4 kissing-loop reporter?
256

Quick one: AAUAAAAGAUGUUUAGGAAAGAAAAUGGAAGGAGCGUGCGAAAGCACAGGUAGGUCGCCAGUGAUGUUGGAACCUGAGCAUCAAA [#SwitchBubble 15 #K4Late]
699

Quick one: UCUCAUCUCAGAAGGAGCGUGAGAGAAUAUUAGAAAUCGUCGAGUGAUGUUCGACGUCUCUCACAGGUAGGUCGCUGAGACGUCA [Arg B SS t9]
97.4

###

Tested on: MS2 coat protein
Test: apparent KD of MS2 coat protein; designed switch direction (-1 OFF switch, 1 ON switch): -1; higher = weaker reporter binding
Settings: Eterna round: R95; input ligand: none
measured endpoint: apparent KD of MS2 coat protein (nM)
A number alone suffices; assume nM.

For CGGUGCUGAGGAUAUACAUGAGGAUCACCCAUGUGUUCCAGCUAGGUGACUGGCAAAUGUAGAAGGCGGUACUG [JL-ex3-3.36 Brourd mod] (puzzle: Exclusion 3) , what is its reported apparent KD of MS2 coat protein?
105

Quick one: GGUUGACAUGAGGAUCACCCAUGUGAGGAUAUGCGAGAGAAAAAAGUGAGGAAGAAAAGCAGAAGGCGCUGUCG [salish99-ex1_r3_003] (puzzle: Exclusion 1)
45.5

Quick one: CAGCCUCAGGUUAGGAUAUACGCGUGGCCGAAGGAGUAGAAGGGACAUGAGGAUCACCCAUGUGGGUUCAAAUG [Onsoisgeso] (puzzle: Brourd's mod of Exclusion 4)
270

Quick one: AGCCAGCUAGGAUAUUGCAGUUGUAACAUGAGGAUCACCCAUGUGAUAGGUGUUUAGCUCCAAGAAGGAGCGCGGC [Eronsoti] (puzzle: Exclusion 5)
28

Quick one: ACUACUAACACGAAAGUGUUAGUACAAUAAGCUUGUGAAACAUGAGGAUCACCCAUGUCCUCAUAAGCUCGUCUUAA [salish99_TOv2_r3_012] (puzzle: Sensor v3, turn-off variant 2)
13.8

Quick one: CCUUUGUCAGGAUAUCAGAACGCGCUCGUAGGGAGCGCAAAUGAGAAGGGACAUGAGGAUCACCCAUGUAAAGA [Gequleon] (puzzle: Exclusion 4)
48.2

Quick one: UUUUUCAGGCCAGAUCCUCACAUGAGGAUCACCCAUGUGCUCGUCUGUUUUCGCACUAGCUUUUUUUUGGUAGUGCU [Level Boss var2-15] (puzzle: Sensor v3, turn-off variant 1)
325

Quick one: GUGAGCAGACGGAGAUCCAACAUGAGGAUCACCCAUGUCUCAUAAGCUUUUUGCUCAUCUUAUUGUACCUUGGUGCU [Mat - Sensor v3 - turn-off var 1 - JL Mod - D20] (puzzle: Sensor v3, turn-off variant 1)
253

Quick one: UGGUGGAAGCAGGAUAUGCUUGUAUUAUUGAUAGCAGAAGGGCUAACAUGAGGAUCACCCAUGUAAGAGGUGUA [JR_E6_Sub057] (puzzle: Exclusion 6)
238

Quick one: UCACGUUAGGAGGAUAUCGAUCCAUUAGCGCGACGAGAAGGCCUGACAUGAGGAUCACCCAUGUGGUCAAACAA [Bexelaar] (puzzle: Exclusion 6)
158

Quick one: UACCGGCGGACCGAAGCUUUUUGCUUGUCUUAUACUACAACAUGAGGAUCACCCAUGUGGUGGUGGUCCGUUGUAGU [JL ViennaUCT Bitein mod 2] (puzzle: Sensor v3, turn-off variant 2)
47.3

Measured values drawn from the supplement of paper PMC9170038 for this set.
